Test: Clearance in nude mouse at 5 mg/kg, iv
Format: ADME, organism-based
Parameters: dose 5 mg/kg, route intravenous
Details: in vivo
reported metric: clearance (mL/min/kg)
Record the value in mL/min/kg, omitting the unit from your answer.

Query: Consider the compound CN1CCN(c2ccc(NC(=O)Nc3ccc(-c4nc(N5CC6CCC(C5)O6)c5cnn(CC(F)(F)F)c5n4)cc3)cc2)CC1 and give its recorded clearance.
Result: 7

====

Molecular target: Serine/threonine-protein kinase mTOR (Homo sapiens)
Assay: Inhibition of human FLAG-tagged mTOR expressed in HEK293 cells after 2 hrs by DELFIA
reported metric: IC50 (nM)
Record the value in nM, omitting the unit from your answer.

given smiles	target entity	IC50, nM
CCn1ncc2c(N3CC4CCC(C3)O4)nc(-c3ccc(NC(=O)Nc4ccc(N5CCOCC5)cc4)cc3)nc21	Serine/threonine-protein kinase mTOR (Homo sapiens)	0.2
CCNC(=O)Nc1ccc(-c2nc(N3CC4CCC(C3)O4)c3cnn(CC)c3n2)cc1	Serine/threonine-protein kinase mTOR (Homo sapiens)	0.6
CCn1ncc2c(N3CC4CCC(C3)O4)nc(-c3ccc(NC(=O)Nc4ccc(N(C)CCN(C)C)cc4)cc3)nc21	Serine/threonine-protein kinase mTOR (Homo sapiens)	0.9

Query: Consider the compound CCn1ncc2c(N3CC4CCC(C3)O4)nc(-c3ccc(NC(=O)Nc4ccc(CN)cc4)cc3)nc21 and give its recorded IC50.
Result: 0.2

Query: Consider the compound O=C(Nc1ccc(-c2nc(N3CC4CCC(C3)O4)c3cnn(CC(F)(F)F)c3n2)cc1)Nc1ccc(N2CCNCC2)cc1 and give its recorded IC50.
Result: 0.2

Query: Consider the compound CCn1ncc2c(N3CC4CCC(C3)O4)nc(-c3ccc(NC(=O)Nc4ccc(CN(C)C)cc4)cc3)nc21 and give its recorded IC50.
Result: 1.1

Query: Consider the compound CCn1ncc2c(N3CC4CCC(C3)O4)nc(-c3ccc(NC(=O)Nc4ccc(OCCN5CCOCC5)nc4)cc3)nc21 and give its recorded IC50.
Result: 1

Query: Consider the compound CCn1ncc2c(N3CC4CCC(C3)O4)nc(-c3ccc(NC(=O)Nc4ccc(OCCN(C)C)cc4)cc3)nc21 and give its recorded IC50.
Result: 0.8

====

Documented IC50 across a set of molecules
Test: Antiproliferative activity against PTEN deficient human MDA468 cells after 3 days by MTS assay
Type: functional, cell-based
Conditions: MDA-MB-468, 72 h
Record the value in nM, omitting the unit from your answer.

given smiles	unit of measure	value reported
CCn1ncc2c(N3CC4CCC(C3)O4)nc(-c3ccc(NC(=O)Nc4ccc(C(=O)NN5CCCC5)cc4)cc3)nc21	nM	4
CN(C)CCn1ncc2c(N3CC4CCC(C3)O4)nc(-c3ccc(NC(=O)Nc4cccnc4)cc3)nc21	nM	220

Query: Consider the molecule CCn1ncc2c(N3CC4CCC(C3)O4)nc(-c3ccc(NC(=O)Nc4ccc(OCCN(C)C)cc4)cc3)nc21 and give its recorded IC50.
Result: 8

====

Target: Serine/threonine-protein kinase mTOR (Homo sapiens, UniProt P42345)
Experiment: Inhibition of human FLAG-tagged mTOR expressed in HEK293 cells after 2 hrs by DELFIA
Type: cell-based
Documented pIC50 across a set of compounds
Please report pIC50 as the negative decimal logarithm of the molar concentration, giving only the number.

Sample records with pIC50:
given smiles	target entity	pIC50
CCn1ncc2c(N3CC4CCC(C3)O4)nc(-c3ccc(NC(=O)Nc4ccc(N5CCOCC5)nc4)cc3)nc21	Serine/threonine-protein kinase mTOR (Homo sapiens, UniProt P42345)	9.52
CCn1ncc2c(N3CC4CCC(C3)O4)nc(-c3ccc(NC(=O)Nc4ccc(C(=O)NN5CCCC5)cc4)cc3)nc21	Serine/threonine-protein kinase mTOR (Homo sapiens, UniProt P42345)	9.70
CCn1ncc2c(N3CC4CCC(C3)O4)nc(-c3ccc(NC(=O)Nc4ccc(N5CCN(C)CC5)cc4)cc3)nc21	Serine/threonine-protein kinase mTOR (Homo sapiens, UniProt P42345)	9.52
CCn1ncc2c(N3CC4CCC(C3)O4)nc(-c3ccc(NC(=O)Nc4ccc(N5CCN(C)CC5)nc4)cc3)nc21	Serine/threonine-protein kinase mTOR (Homo sapiens, UniProt P42345)	9.15

Query: Consider the compound CCn1ncc2c(N3CC4CCC(C3)O4)nc(-c3ccc(NC(=O)Nc4ccc(C(=O)NN(C)C)cc4)cc3)nc21 and give its recorded pIC50.
Result: 9.52

Query: Consider the compound CCn1ncc2c(N3CC4CCC(C3)O4)nc(-c3ccc(NC(=O)Nc4ccc(CN5CCN(C)CC5)cc4)cc3)nc21 and give its recorded pIC50.
Result: 9.15

Query: Consider the compound CCn1ncc2c(N3CC4CCC(C3)O4)nc(-c3ccc(NC(=O)Nc4ccc(NCCN(C)C)cc4)cc3)nc21 and give its recorded pIC50.
Result: 8.77

Query: Consider the compound CN1CCN(c2ccc(NC(=O)Nc3ccc(-c4nc(N5CC6CCC(C5)O6)c5cnn(CC(F)(F)F)c5n4)cc3)cc2)CC1 and give its recorded pIC50.
Result: 9.22

====

Experiment: Solubility at pH 3
Format: physicochemical
Conditions: buffer
Documented solubility across a set of compounds

given smiles	solubility
CCn1ncc2c(N3CC4CCC(C3)O4)nc(-c3ccc(NC(=O)Nc4ccc(N5CCN(C)CC5)nc4)cc3)nc21	> 100 µg/mL

Now turn to the next compound.
Query: Consider the compound CCn1ncc2c(N3CC4CCC(C3)O4)nc(-c3ccc(NC(=O)Nc4ccc(OCCN5CCOCC5)nc4)cc3)nc21 and give its recorded solubility.
Result: > 100 µg/mL

====

Assay: Metabolic stability in human microsomes assessed as half life
Assay type: ADME, Microsome
Documented half-life across a set of compounds

Sample records with half-life:
given smiles	half-life
CCn1ncc2c(N3CC4CCC(C3)O4)nc(-c3ccc(NC(=O)Nc4ccc(N5CCN(C)CC5)cc4)cc3)nc21	> 30 min
CCn1ncc2c(N3CC4CCC(C3)O4)nc(-c3ccc(NC(=O)Nc4ccc(CN5CCN(C)CC5)cc4)cc3)nc21	> 30 min
CCn1ncc2c(N3CC4CCC(C3)O4)nc(-c3ccc(NC(=O)Nc4ccc(CN)cc4)cc3)nc21	> 30 min

Now turn to the next compound.
Query: Consider the compound CCn1ncc2c(N3CC4CCC(C3)O4)nc(-c3ccc(NC(=O)Nc4ccc(N5CCN(C)CC5)nc4)cc3)nc21 and give its recorded half-life.
Result: > 30 min

====

Experiment: Selectivity ratio, IC50 for PI3Kalpha to IC50 for human FLAG-tagged mTOR
reported metric: Ratio IC50
API doc: respond with a numeric literal and nothing else, no unit.

given smiles	Ratio IC50
CCn1ncc2c(N3CC4CCC(C3)O4)nc(-c3ccc(NC(=O)Nc4cccnc4)cc3)nc21	1120
CCn1ncc2c(N3CC4CCC(C3)O4)nc(-c3ccc(NC(=O)Nc4ccc(N(C)CCN(C)C)cc4)cc3)nc21	295
CCn1ncc2c(N3CC4CCC(C3)O4)nc(-c3ccc(NC(=O)Nc4ccc(NCCN(C)C)cc4)cc3)nc21	122
CCNC(=O)Nc1ccc(-c2nc(N3CC4CCC(C3)O4)c3cnn(CCN(C)C)c3n2)cc1	240

Query: Consider the compound CN(C)CCn1ncc2c(N3CC4CCC(C3)O4)nc(-c3ccc(NC(=O)Nc4cccnc4)cc3)nc21 and give its recorded Ratio IC50.
Result: 89

====

Documented IC50 across a set of compounds
Experiment: Antiproliferative activity against PTEN deficient human MDA468 cells after 3 days by MTS assay
Type: functional, cell-based
Conditions: MDA-MB-468, 72 h
Record the value in µM, omitting the unit from your answer.

Sample records with IC50:
given smiles	IC50 [µM]
CCn1ncc2c(N3CC4CCC(C3)O4)nc(-c3ccc(NC(=O)Nc4ccc(N5CCN(C)CC5)nc4)cc3)nc21	0.0008
CCn1ncc2c(N3CC4CCC(C3)O4)nc(-c3ccc(NC(=O)Nc4ccc(N5CCCC5)cc4)cc3)nc21	0.12
CCNC(=O)Nc1ccc(-c2nc(N3CC4CCC(C3)O4)c3cnn(CC)c3n2)cc1	0.08

Now turn to the next compound.
Query: Consider the compound CCn1ncc2c(N3CC4CCC(C3)O4)nc(-c3ccc(NC(=O)Nc4ccc(OCCN5CCOCC5)nc4)cc3)nc21 and give its recorded IC50.
Result: 0.0008

====

Biological target: Phosphatidylinositol 4,5-bisphosphate 3-kinase catalytic subunit gamma isoform (Homo sapiens, UniProt P48736)
Sequence (P48736 whole entry, canonical isoform): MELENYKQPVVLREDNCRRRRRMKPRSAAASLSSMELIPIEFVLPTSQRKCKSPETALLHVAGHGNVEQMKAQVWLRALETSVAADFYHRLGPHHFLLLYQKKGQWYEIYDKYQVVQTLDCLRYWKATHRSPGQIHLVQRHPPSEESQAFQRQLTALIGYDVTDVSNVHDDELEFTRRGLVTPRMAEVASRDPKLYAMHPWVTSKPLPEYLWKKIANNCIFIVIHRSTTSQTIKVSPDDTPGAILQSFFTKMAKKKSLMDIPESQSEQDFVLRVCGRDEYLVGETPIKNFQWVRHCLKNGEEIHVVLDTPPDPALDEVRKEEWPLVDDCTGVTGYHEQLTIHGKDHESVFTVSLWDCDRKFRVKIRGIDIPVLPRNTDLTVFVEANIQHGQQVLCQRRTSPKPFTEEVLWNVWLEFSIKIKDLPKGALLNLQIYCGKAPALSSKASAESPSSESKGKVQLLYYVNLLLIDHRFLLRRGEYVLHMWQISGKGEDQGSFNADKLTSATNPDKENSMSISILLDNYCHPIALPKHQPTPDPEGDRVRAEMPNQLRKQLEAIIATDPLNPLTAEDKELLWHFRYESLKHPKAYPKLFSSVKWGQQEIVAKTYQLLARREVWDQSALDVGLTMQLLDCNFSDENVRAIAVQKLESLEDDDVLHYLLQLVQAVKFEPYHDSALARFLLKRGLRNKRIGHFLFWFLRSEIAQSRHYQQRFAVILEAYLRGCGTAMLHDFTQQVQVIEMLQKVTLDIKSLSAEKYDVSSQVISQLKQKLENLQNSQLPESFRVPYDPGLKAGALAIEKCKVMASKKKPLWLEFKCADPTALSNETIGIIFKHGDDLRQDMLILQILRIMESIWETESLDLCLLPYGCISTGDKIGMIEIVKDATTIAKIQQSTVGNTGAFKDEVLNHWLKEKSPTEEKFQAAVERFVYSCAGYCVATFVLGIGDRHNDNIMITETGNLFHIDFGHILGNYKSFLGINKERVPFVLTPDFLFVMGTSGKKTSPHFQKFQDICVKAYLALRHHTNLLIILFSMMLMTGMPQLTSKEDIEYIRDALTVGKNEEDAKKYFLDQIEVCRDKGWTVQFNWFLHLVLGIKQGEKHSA
Experiment: Inhibition of PI3Kgamma
pIC50: −log10 of the molar value.
reported metric: pIC50

Query: Consider the molecule CN1CCN(c2ccc(NC(=O)Nc3ccc(-c4nc(N5CC6CCC(C5)O6)c5cnn(CC(F)(F)F)c5n4)cc3)cc2)CC1 and give its recorded pIC50.
Result: < 5.00

====

Test: Antiproliferative activity against PTEN deficient human MDA468 cells after 3 days by MTS assay
Format: functional, cell-based
Conditions: MDA-MB-468, 72 h
Documented pIC50 across a set of molecules
Please report pIC50 as the negative decimal logarithm of the molar concentration, giving only the number.

Sample records with pIC50:
given smiles	reported metric	value reported
CCn1ncc2c(N3CC4CCC(C3)O4)nc(-c3ccc(NC(=O)Nc4cccnc4)cc3)nc21	pIC50	8.92
CCn1ncc2c(N3CC4CCC(C3)O4)nc(-c3ccc(NC(=O)Nc4ccc(NC)nc4)cc3)nc21	pIC50	6.70
CCn1ncc2c(N3CC4CCC(C3)O4)nc(-c3ccc(NC(=O)Nc4ccc(CN5CCN(C)CC5)cc4)cc3)nc21	pIC50	9.10

Query: Consider the molecule CCNC(=O)Nc1ccc(-c2nc(N3CC4CCC(C3)O4)c3cnn(CCN(C)C)c3n2)cc1 and give its recorded pIC50.
Result: 5.74

Query: Consider the molecule CCn1ncc2c(N3CC4CCC(C3)O4)nc(-c3ccc(NC(=O)Nc4ccc(N(C)CCN(C)C)cc4)cc3)nc21 and give its recorded pIC50.
Result: 9.10
